Test system: HCT-116 cells
Assay: MTT assay, cytotoxicity on HCT-116
Format: cell-based, human
Conditions: human, HCT-116 cells, MTT assay, 48 h; NA = not active up to 100 μM; read-out: Cytotoxicity (HCT-116) IC50 ±SD
observedProperty: IC50 at 48 h (µM)
# unit: µM | format: bare number

Incoming: What reported IC50 at 48 h corresponds to "O=C(/C=C/c1ccc(O)c(O)c1)Oc1ccc(-c2cc(=S)ss2)cc1" on HCT-116 cells?
Outgoing: 46.7

Incoming: What reported IC50 at 48 h corresponds to "CS(=O)(=O)SCCOC(=O)/C=C/c1ccc(O)c(O)c1" on HCT-116 cells?
Outgoing: 123

Incoming: What reported IC50 at 48 h corresponds to "COC(=O)/C=C/c1ccc(O)c(O)c1" on HCT-116 cells?
Outgoing: 90.8

Incoming: What reported IC50 at 48 h corresponds to CC(C)c1cc2c(c(O)c1O)C13CCCC(C)(C)C1C(OC3=O)C2N (stereo not drawn) on HCT-116 cells?
Outgoing: 65

Incoming: What reported IC50 at 48 h corresponds to "C=CCSSCCOC(=O)/C=C/c1ccc(O)c(O)c1" on HCT-116 cells?
Outgoing: 73

Incoming: What reported IC50 at 48 h corresponds to CC(C)c1cc2c(c(O)c1O)C13CCCC(C)(C)C1C(OC3=O)C2NC(=O)CCCCSS(C)(=O)=O (stereo not drawn) on HCT-116 cells?
Outgoing: 73.8

Incoming: What reported IC50 at 48 h corresponds to CS(=O)(=O)SCCOC(=O)C=Cc1ccccc1 [Compound 25, 2-(Methylsulfonylthio)ethyl cinnamate] on HCT-116 cells?
Outgoing: 95.2

Incoming: What reported IC50 at 48 h corresponds to Oc1ccc(-c2cc(=S)ss2)cc1 [Compound 5, 5-(4-hydroxyphenyl)-1,2-dithiol-3-thione] on HCT-116 cells?
Outgoing: 71.2

Incoming: What reported IC50 at 48 h corresponds to "COc1cc(/C=C/C(=O)OCCCCSS(C)(=O)=O)ccc1O" on HCT-116 cells?
Outgoing: 64.4

Incoming: What reported IC50 at 48 h corresponds to C=CCSSCCC(=O)NC1c2cc(C(C)C)c(O)c(O)c2C23CCCC(C)(C)C2C1OC3=O (stereo not drawn) on HCT-116 cells?
Outgoing: 3.5

Incoming: What reported IC50 at 48 h corresponds to "COc1cc(/C=C/C(=O)OCCSS(C)(=O)=O)ccc1O" on HCT-116 cells?
Outgoing: 50.4

Incoming: What reported IC50 at 48 h corresponds to CC(C)c1cc2c(c(O)c1O)C13CCCC(C)(C)C1C(OC3=O)C2NC(=O)c1ccc(-c2cssc2=S)cc1 (stereo not drawn) on HCT-116 cells?
Outgoing: 65.4
